conditionDescription: 298.15 K; 10000 kPa; Liquid; Vibrating tube method
observedProperty: mass density (kg/m3)

[[record]]
smilesstr = "CCCCOCC"
observedproperty = "mass density"
observed = 755.44

[[record]]
smilesstr = "CC(C)OC(C)C"
observedproperty = "mass density"
observed = 730.59

[[record]]
smilesstr = "CCCCCOCCCCC"
observedproperty = "mass density"
observed = 787.02

[[record]]
smilesstr = "CC(C)CCOCCC(C)C"
observedproperty = "mass density"
observed = 779.24

[[record]]
smilesstr = "CCOC(C)(C)C"
observedproperty = "mass density"
observed = 747.14

[[record]]
smilesstr = "COC(C)(C)C"
observedproperty = "mass density"
observed = 746.89

[[record]]
smilesstr = "CCCOCCC"
observedproperty = "mass density"
observed = 753.37

[[record]]
smilesstr = "CCCCOC"
observedproperty = "mass density"
observed = 751.36

